system.tested: Human immunodeficiency virus type 1 integrase (Human immunodeficiency virus 1, UniProt Q7ZJM1)
Sequence (Q7ZJM1 whole entry): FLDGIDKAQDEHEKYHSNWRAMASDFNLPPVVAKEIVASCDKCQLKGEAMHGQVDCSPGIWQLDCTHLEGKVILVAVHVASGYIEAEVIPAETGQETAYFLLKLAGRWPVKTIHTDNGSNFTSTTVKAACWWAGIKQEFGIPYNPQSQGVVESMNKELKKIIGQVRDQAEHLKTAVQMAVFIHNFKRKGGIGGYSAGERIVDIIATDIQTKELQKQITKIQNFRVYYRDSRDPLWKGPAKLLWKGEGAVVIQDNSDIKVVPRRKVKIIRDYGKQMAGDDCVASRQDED
method: Inhibition of recombinant HIV-1 integrase strand transfer activity using 32P 5' end-labeled linear 21'mer as substrate preincubated for 30 mins prior to substrate challenge by phosphorimaging analysis
pIC50: −log10 of the molar value.
quantity.name: pIC50

Before answering, review these 2 worked examples.
O=C1C[C@@H](c2ccc(O)cc2)Oc2cc(OCc3ccc(F)cc3)cc(O)c21 :: < 4.00
O=c1c(O)c(-c2ccc(O)c(O)c2)oc2cc(O)cc(OCc3ccc(F)cc3)c12 :: 5.12

Recorded pIC50 (molecule "O=c1c(O)c(-c2ccc(O)c(OCc3ccc(F)cc3)c2)oc2cc(O)cc(O)c12" ): < 4.70

Recorded pIC50 (molecule "O=c1c(O)c(-c2ccc(O)c(O)c2)oc2cc(N3CCOCC3)cc(O)c12" ): < 4.70

Recorded pIC50 (molecule "O=c1cc(-c2ccc(O)cc2)oc2cc(OCc3ccc(F)cc3)cc(O)c12" ): 4.46

Recorded pIC50 (molecule "CC(C)(C)Oc1cc(O)c2c(=O)cc(-c3ccccc3)oc2c1" ): 4.30

Recorded pIC50 (molecule "CC(C)(C)Oc1cc(O)c2c(c1)O[C@H](c1ccc(O)cc1)CC2=O" ): < 4.00

Recorded pIC50 (molecule "O=c1c(-c2ccc(O)cc2)coc2cc(O)cc(O)c12" ): < 4.70

Recorded pIC50 (molecule "O=c1cc(-c2ccccc2)oc2cc(N3CCOCC3)cc(O)c12" ): < 4.70

Recorded pIC50 (molecule "O=c1c(OCc2ccc(F)cc2)c(-c2ccc(O)c(O)c2)oc2cc(O)cc(O)c12" ): < 4.70

Recorded pIC50 (molecule "CC(C)(C)Oc1cc(O)c2c(=O)c(-c3ccc(O)cc3)coc2c1" ): 4.15

----------
system.tested: Human immunodeficiency virus type 1 integrase (Human immunodeficiency virus 1)
method: Inhibition of recombinant HIV-1 integrase strand transfer activity using 32P 5' end-labeled linear 21'mer as substrate preincubated for 30 mins prior to substrate challenge by phosphorimaging analysis
Measured IC50 of individual entries
# number only, unit µM dropped from output

O=c1cc(-c2ccc(O)c(O)c2)oc2cc(O)cc(O)c12 :: 8.9

Alright, here's another compound for you.
Recorded IC50 (compound "O=c1c(O)c(-c2ccc(O)c(O)c2)oc2cc(OCc3ccc(F)cc3)cc(O)c12" ): 4

----------
system.tested: Human immunodeficiency virus type 1 integrase (Human immunodeficiency virus 1)
method: Inhibition of His6-tagged HIV-1 integrase assessed as decrease in integrase-Flag-LEDGF/p75 interaction preincubated with enzyme for 30 mins followed by addition of Flag-LEDGF/p75 for 1 hr by AlphaScreen assay
quantity.name: IC50 (µM)

O=c1cc(-c2ccc(O)c(O)c2)oc2cc(O)cc(O)c12 :: 0.45
O=c1cc(-c2ccc(O)c(O)c2)oc2cc(N3CCOCC3)cc(O)c12 :: 1.6

P = O=c1cc(-c2ccccc2)oc2cc(O)cc(O)c12
Q = O=c1c(OCc2ccc(F)cc2)c(-c2ccc(O)c(O)c2)oc2cc(O)cc(O)c12
Between the entries labelled P and Q , which has a larger IC50 value on record? Please indicate the selected item by its label.
P
(P: 1.4 µM, Q: 0.38 µM)

----------
system.tested: Human immunodeficiency virus type 1 integrase (Human immunodeficiency virus 1)
method: Inhibition of His6-tagged HIV-1 integrase assessed as decrease in integrase-Flag-LEDGF/p75 interaction preincubated with enzyme for 30 mins followed by addition of Flag-LEDGF/p75 for 1 hr by AlphaScreen assay
pIC50: −log10 of the molar value.
quantity.name: pIC50

Before answering, review these 4 worked examples.
O=c1c(O)c(-c2ccc3c(c2)OC(c2ccccc2)(c2ccccc2)O3)oc2cc(O)cc(O)c12 :: < 4.70
O=c1cc(-c2ccccc2)oc2cc(OCc3ccc(F)cc3)cc(O)c12 :: < 4.70
O=c1cc(-c2ccc(O)cc2)oc2cc(OCc3ccc(F)cc3)cc(O)c12 :: < 4.70
O=c1cc(-c2ccccc2)oc2cc(OCc3ccc(F)cc3)c(O)c(O)c12 :: < 4.70

Alright, here's another compound for you.
Record O=C1C[C@@H](c2ccc(O)cc2)Oc2cc(O)cc(O)c21 [NARINGENIN] ; system Human immunodeficiency virus type 1 integrase (Human immunodeficiency virus 1); pIC50 = 5.77
